Molecular target: Acetylcholinesterase (Homo sapiens, UniProt P22303)
Sequence (P22303 whole entry): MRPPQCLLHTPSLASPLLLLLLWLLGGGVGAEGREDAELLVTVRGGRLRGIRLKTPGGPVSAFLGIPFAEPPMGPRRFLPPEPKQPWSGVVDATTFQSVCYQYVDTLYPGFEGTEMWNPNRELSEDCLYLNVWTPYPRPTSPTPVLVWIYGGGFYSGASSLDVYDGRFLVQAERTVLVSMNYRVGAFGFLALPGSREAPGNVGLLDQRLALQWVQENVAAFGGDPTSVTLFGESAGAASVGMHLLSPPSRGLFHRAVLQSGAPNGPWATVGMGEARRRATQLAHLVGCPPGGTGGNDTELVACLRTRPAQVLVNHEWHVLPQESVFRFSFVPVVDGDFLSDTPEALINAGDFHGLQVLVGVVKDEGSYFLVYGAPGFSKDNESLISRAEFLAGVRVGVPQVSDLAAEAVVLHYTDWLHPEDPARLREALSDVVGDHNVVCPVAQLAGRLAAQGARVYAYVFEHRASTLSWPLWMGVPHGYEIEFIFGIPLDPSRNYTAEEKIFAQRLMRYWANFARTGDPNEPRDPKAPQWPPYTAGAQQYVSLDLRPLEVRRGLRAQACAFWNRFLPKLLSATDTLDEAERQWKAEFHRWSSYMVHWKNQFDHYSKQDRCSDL
Experiment: Inhibition of human recombinant AChE using acetylthiocholine iodide substrate incubated for 15 mins by spectrophotometry based Ellman's method
Parameter: pIC50. Scope: all listed entries.
Bear in mind: pIC50 is minus log10 of a mol/L concentration; give just that figure.

test_smiles=O=c1oc2cc(OCCN3CCN(Cc4ccccc4)CC3)ccc2c2c1CCCC2 measure_name=pIC50 observed_result=5.89
test_smiles=O=c1oc2cc(OCCCCN3CCC(Cc4ccccc4)CC3)ccc2c2ccccc12 measure_name=pIC50 observed_result=4.85
test_smiles=COc1cccc(CN(C)CCCCOc2ccc3c4c(c(=O)oc3c2)CCCC4)c1 measure_name=pIC50 observed_result=5.77
test_smiles=COc1cccc(CN2CCN(CCCCOc3ccc4c(c3)oc(=O)c3ccccc34)CC2)c1 measure_name=pIC50 observed_result=4.67

Determine reported pIC50 for COc1cccc(CN(C)CCOc2ccc3c4c(c(=O)oc3c2)CCCC4)c1 ; test system: Acetylcholinesterase (Homo sapiens, UniProt P22303). 5.22

Determine reported pIC50 for COc1cccc(CN(C)CCCOc2ccc3c(c2)oc(=O)c2ccccc23)c1 ; test system: Acetylcholinesterase (Homo sapiens, UniProt P22303). 4.68

Determine reported pIC50 for O=c1oc2cc(OCCCN3CCN(Cc4ccccc4)CC3)ccc2c2c1CCCC2 ; test system: Acetylcholinesterase (Homo sapiens, UniProt P22303). 6.05

====

Species on record: Homo sapiens
Test: Selectivity index, ratio of IC50 for human recombinant BuChE to IC50 for human recombinant AChE
Measure Name: Ratio IC50
Respond with the number and no other words.

Worked cases, answers included:
compound=COc1cccc(CN(C)CCCCOc2ccc3c(c2)oc(=O)c2ccccc23)c1 observed_result=2.1
compound="CC(c1ccc2c(c1)oc(=O)c1ccccc12)N(C)C (racemic)" observed_result=1.6
compound="COc1cc(C(C)N(C)C)c2c(c1)oc(=O)c1ccccc12 (racemic)" observed_result=1.6

Give the reported Ratio IC50 for this compound. O=c1oc2cc(OCCCN3CCC(Cc4ccccc4)CC3)ccc2c2ccccc12 5.2

Give the reported Ratio IC50 for this compound. C[C@@H](c1ccc2c(c1)oc(=O)c1ccccc12)N(C)C 2.1

====

Species on record: Homo sapiens
Assay: Selectivity index, ratio of IC50 for human recombinant BuChE to IC50 for human recombinant AChE
Measure Name: Ratio IC50

Worked cases, answers included:
compound=COc1cccc(CN2CCN(CCOc3ccc4c5c(c(=O)oc4c3)CCCC5)CC2)c1 observed_result="> 5"
compound=COc1cccc(CN2CCN(CCOc3ccc4c(c3)oc(=O)c3ccccc34)CC2)c1 observed_result="> 3"
compound=O=c1oc2cc(OCCN3CCC(Cc4ccccc4)CC3)ccc2c2ccccc12 observed_result="> 2"
compound=O=c1oc2cc(OCCN3CCC(Cc4ccccc4)CC3)ccc2c2c1CCCC2 observed_result="> 5"

Give the reported Ratio IC50 for this compound. COc1cccc(CC2CCN(CCCCOc3ccc4c(c3)oc(=O)c3ccccc34)CC2)c1 > 1

Give the reported Ratio IC50 for this compound. COc1cccc(CN2CCN(CCCOc3ccc4c(c3)oc(=O)c3ccccc34)CC2)c1 > 2

Give the reported Ratio IC50 for this compound. COc1cccc(CN(C)CCCCOc2ccc3c4c(c(=O)oc3c2)CCCC4)c1 > 23

Give the reported Ratio IC50 for this compound. COc1cccc(CC2CCN(CCOc3ccc4c5c(c(=O)oc4c3)CCCC5)CC2)c1 > 1

Give the reported Ratio IC50 for this compound. CC(c1cc(O)cc2oc(=O)c3ccccc3c12)N(C)C (racemic) > 1

Give the reported Ratio IC50 for this compound. CN(CCOc1ccc2c3c(c(=O)oc2c1)CCCC3)Cc1ccccc1 > 14
